target of assay: MK2 (Homo sapiens, UniProt P49137)
Sequence (P49137 whole entry): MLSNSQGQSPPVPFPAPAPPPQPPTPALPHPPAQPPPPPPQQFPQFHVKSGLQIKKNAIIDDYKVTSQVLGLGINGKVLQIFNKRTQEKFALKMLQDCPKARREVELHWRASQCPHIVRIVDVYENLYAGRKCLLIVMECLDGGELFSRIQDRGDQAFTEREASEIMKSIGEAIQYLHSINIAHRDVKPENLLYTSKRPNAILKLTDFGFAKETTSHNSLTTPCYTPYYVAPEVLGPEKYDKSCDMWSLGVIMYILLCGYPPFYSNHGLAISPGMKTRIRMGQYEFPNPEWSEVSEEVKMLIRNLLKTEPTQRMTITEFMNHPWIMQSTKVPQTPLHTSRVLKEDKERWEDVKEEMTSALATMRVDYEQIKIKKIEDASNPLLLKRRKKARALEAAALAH
assay details: MK2 degradation in human SW1353 cells (MSD, 24 h)
Type: cell-based
Set-up: endogenous in cells; host or cells: SW-1353 (ATCC HTB-94)
particulars: read-out: MK2 MSD SW 1353 24 h Dmax %
recorded endpoint: Dmax

Request the reported Dmax associated with Cn1c(=O)n(C2CCC(=O)NC2=O)c2cccc(C3CCN(CC4CCN(c5ccc(-c6cc(-c7cc8c([nH]7)CCNC8=O)ccn6)c(F)c5)CC4)CC3)c21 (centres unmarked) [Compound I-137] > 75%

// returns reported Dmax for input C[C@@H]1CNc2c(sc3ccc4nc(-c5cccc(N6CCC(CN7CCN(c8cccc9c(N%10CCC(=O)NC%10=O)cncc89)CC7)CC6)c5)ccc4c23)C(=O)N1 [Compound I-310] > 75%

Which Dmax value belongs to Cn1c(=O)n(C2CCC(=O)NC2=O)c2ccc(N3CC(CN4CCN(c5ccc(-c6cc(-c7cc8c([nH]7)C7(CC7)CNC8=O)ccn6)cc5)CC4)C3)cc21 (centres unmarked) [Compound I-189] ? > 75%

Requested field: Dmax. Item: C[C@@H]1CNc2c(sc3ccc4nc(N5CCCN(CC6CCN(c7ccc8c(c7)n(C)c(=O)n8C7CCC(=O)NC7=O)CC6)CC5)ccc4c23)C(=O)N1 (some centres unmarked) [Compound I-446] < 50%

# Dmax lookup, item C[C@@H]1CN(C)c2c(sc3ccc4nc(-c5ccc(N6CCN(CCc7cccc8c7n(C)c(=O)n8C7CCC(=O)NC7=O)CC6)cc5)ccc4c23)C(=O)N1 (some centres unmarked) [Compound I-413] > 75%

Values compiled from patent US20230135894A1.
